Assay: Calculated pseudo-acceleration (Γ) of odorants in water, water-air and air
measuredMetric: release category by Γ

CCC=CCCC=CCO [2,6 NONADIEN-1-OL] : sustained release
CC(C)=CCCC(C)=CCS [THIOGERANIOL, 3,7-Dimethyl-2,6-octadien-1-thiol] : sustained release
CC(=O)OC1CCCCC1C(C)(C)C (stereo not shown) [VERDOX] : sustained release
CCC=CCCC=CC=O [2,6-NONADIENAL] : flash release
CCCCC/C=C/CCC=O [TRANS-4-DECEN-1-AL] : flash release
CC1=CCC(C(C)(C)S)CC1 (stereo not shown) : flash release

* * *

Assay: GC-MS headspace release profile of perfume in shampoo, 1/100 dilution in water
Format: physicochemical
Details: Tropical Fruit Perfume, 20 seconds
Mark each entry Y if its GC Abundance sits below 5000, and N for all others.

CC1=CC(C)C(C=O)CC1 (stereo not drawn) [TRIPLAL] : N
CCOC(=O)CC1(C)OCCO1 [FRUCTONE] : Y
CCCCCC1CCC(=O)O1 (stereo not drawn) [ALDEHYDE C-18] : Y
C=CC(C)(O)CCC=C(C)C (stereo not drawn) [LINALOOL, linalool] : N
CC(C)=CC1CC(C)CCO1 (stereo not drawn) [ROSE OXIDE (HIGH CIS)] : N
CCOC(=O)C(C)CC (stereo not drawn) [ETHYL 2-METHYLBUTYRATE, Ethyl 2-methylbutyrate] : Y
CCCC(=O)OCC [ETHYL BUTYRATE, Ethyl butyrate] : Y

* * *

Experiment: GC-MS headspace release profile of perfume in shampoo, 1/100 dilution in water
Format: physicochemical
Settings: Tropical Fruit Perfume, 10 seconds
Protocol: Experimental Procedure: Individual odorant to be tested was added to 20 g of shampoo formulation (see formula below in Table 4) at 0.1%. A 10 gram sample of formulation and fragrance was added to an empty 1000 ml pyrex beaker. This beaker was then filled with 1000 ml of 120 F tap water. Beaker with diluted shampoo sample was then immediately placed into a semi-enclosed plexiglass chamber. […]
Mark each entry Fulfilled if its GC Abundance sits below 1000, and Not fulfilled for all others.

CCOC(=O)C(C)CC (stereo not shown) [ETHYL 2-METHYLBUTYRATE, Ethyl 2-methylbutyrate] : Not fulfilled
C=C(C)[C@H]1CC=C(C)CC1 : Not fulfilled
C=CC(C)(O)CCC=C(C)C (stereo not shown) : Fulfilled
CCCC(=O)OCC [ETHYL BUTYRATE, Ethyl butyrate] : Not fulfilled
C=CC(C)CCCC(C)(C)O (stereo not shown) [DIHYDROMYRCENOL] : Fulfilled

* * *

Assay: GC-MS headspace release profile of perfume in shampoo, 1/100 dilution in water
Format: physicochemical
Conditions: Tropical Fruit Perfume, 50 seconds
Description: Experimental Procedure: Individual odorant to be tested was added to 20 g of shampoo formulation (see formula below in Table 4) at 0.1%. A 10 gram sample of formulation and fragrance was added to an empty 1000 ml pyrex beaker. This beaker was then filled with 1000 ml of 120 F tap water. Beaker with diluted shampoo sample was then immediately placed into a semi-enclosed plexiglass chamber. […]
Mark each entry Fulfilled if its GC Abundance sits below 5000, and Not fulfilled for all others.

C=C(C)[C@H]1CC=C(C)CC1 : Fulfilled
CC(C)=CCCC(C)CCCC(C)C=O (centres unmarked) : Fulfilled
CC(C)c1cccc(C(C)CC=O)c1 (centres unmarked) [FLORHYDRAL] : Not fulfilled
C=CCOC(=O)CCC1CCCCC1 [ALLYL CYCLOHEXYL PROPIONATE] : Not fulfilled
CCC(=O)OCc1ccccc1 [BENZYL PROPIONATE] : Not fulfilled
C=CC(C)(O)CCC=C(C)CC (mixture of isomers) : Not fulfilled
CC(=O)OC(C)(C)Cc1ccccc1 [DIMETHYL BENZYL CARBINYL ACETATE] : Not fulfilled
CCCC(C)C(=O)OCC (centres unmarked) [MANZANATE, Ethyl 2-methylpentanoate] : Fulfilled
CC(C)=CCCC(C)CCO (centres unmarked) : Not fulfilled
CC(=O)OC1CCCCC1C(C)(C)C (centres unmarked) : Not fulfilled
CC1OC(C)C2Cc3ccccc3C2O1 (centres unmarked) : Fulfilled
C=CC(C)CCCC(C)(C)O (centres unmarked) [DIHYDROMYRCENOL] : Not fulfilled
CC(=O)C=CC1=C(C)CCCC1(C)C : Not fulfilled
CC/C=C\CCOC(=O)OC : Fulfilled
O=C1CCCCCCCCCCCC(=O)OCCO1 [ETHYLENE BRASSYLATE] : Fulfilled
CCCCCC1CCC(=O)O1 (centres unmarked) : Fulfilled
Cc1ccc2c(c1)OCC(=O)CO2 : Fulfilled
CCC(C)(O)CCC=C(C)C (centres unmarked) [DIHYDROLINALOOL] : Fulfilled
CC(C)=CC1CC(C)CCO1 (stereo not drawn) [ROSE OXIDE (HIGH CIS)] : Not fulfilled
CCCCCC1C(=O)CCC1CC(=O)OC (centres unmarked) : Fulfilled
C=CCOC(=O)CCCCCC [ALLYL HEPTOATE] : Not fulfilled
CCCCCCC(C=O)=Cc1ccccc1 : Not fulfilled
CC/C=C\CCO [CIS-3-HEXEN-1-OL] : Not fulfilled
CC/C=C\CCOC(C)=O [CIS-3-HEXENYL ACETATE] : Not fulfilled
CC(=O)OCc1ccccc1 [BENZYL ACETATE] : Not fulfilled
COC(=O)c1c(C)cc(O)c(C)c1O [METHYL ATRATATE] : Fulfilled
C=CC(C)(O)CCC=C(C)C (centres unmarked) : Not fulfilled
OCc1ccccc1 : Fulfilled
CC1=CCC(CCC(C)C(C)O)C1(C)C (centres unmarked) : Fulfilled
CC1=CC(C)C(C=O)CC1 (centres unmarked) : Not fulfilled
CCOC(=O)C(C)CC (centres unmarked) [ETHYL 2-METHYLBUTYRATE, Ethyl 2-methylbutyrate] : Fulfilled
CCCC(=O)OCC [ETHYL BUTYRATE, Ethyl butyrate] : Fulfilled
CCC=C(C)C(O)CCCCC (centres unmarked) : Not fulfilled
CC(=O)OC1CCC(C(C)(C)C)CC1 (centres unmarked) : Not fulfilled
CC1(C)CCC[C@]2(C)[C@H]3CCO[C@]3(C)CC[C@@H]12 : Fulfilled
CC(=O)OC(C)(C)C1CC=C(C)CC1 (centres unmarked) [TERPINYL ACETATE] : Not fulfilled
CC(C)CC1CC(C)(O)CCO1 (centres unmarked) : Not fulfilled
CC=CC(=O)C1=C(C)C=CCC1(C)C : Fulfilled
CCCCCCC1CCC(=O)O1 (centres unmarked) [GAMMA-DECALACTONE, 5-Hexyldihydro-2(3H)-furanone] : Not fulfilled
O=C1CCCCCCCCCCCCCCO1 [EXALTOLIDE TOTAL] : Fulfilled

* * *

Assay: GC-MS headspace release profile of perfume in shampoo, 1/100 dilution in water
Format: physicochemical
Settings: Tropical Fruit Perfume, 30 seconds
measuredMetric: GC Abundance

CCCC(C)C(=O)OCC (stereo not shown) [MANZANATE, Ethyl 2-methylpentanoate] : 4000
CC(C)=CCCC(C)CCO (stereo not shown) : 7000
CCOC(=O)C(C)CC (stereo not shown) [ETHYL 2-METHYLBUTYRATE, Ethyl 2-methylbutyrate] : 3100
CC(=O)OCc1ccccc1 [BENZYL ACETATE] : 17000
CCOC(=O)CC1(C)OCCO1 : 5000
CC(=O)OC1CCCCC1C(C)(C)C (stereo not shown) : 14000
C=C(C)[C@H]1CC=C(C)CC1 : 7000
CC(=O)C=CC1=C(C)CCCC1(C)C : 2000
CC(C)=CC1CC(C)CCO1 (stereo not drawn) [ROSE OXIDE (HIGH CIS)] : 14000
CC/C=C\CCOC(=O)OC : 3000

* * *

Assay: GC-MS headspace release profile of perfume in shampoo, 1/100 dilution in water
Type: physicochemical
Details: Tropical Fruit Perfume, 30 seconds
Catalogue of GC Abundance values
measuredMetric: GC Abundance

CC/C=C\CCO [CIS-3-HEXEN-1-OL] : 14000
CC(=O)OC1CCC(C(C)(C)C)CC1 (stereo not drawn) : 2000
C=CC(C)CCCC(C)(C)O (stereo not drawn) [DIHYDROMYRCENOL] : 15000

* * *

Catalogue of GC Abundance values
Test: GC-MS headspace release profile of perfume in shampoo, 1/100 dilution in water
Format: physicochemical
Conditions: Tropical Fruit Perfume, 30 seconds
measuredMetric: GC Abundance

CCC(C)(O)CCC=C(C)C (centres unmarked) [DIHYDROLINALOOL] : 3000
CC(=O)OC(C)(C)C1CC=C(C)CC1 (centres unmarked) [TERPINYL ACETATE] : 1000
CC(=O)OC(C)(C)Cc1ccccc1 [DIMETHYL BENZYL CARBINYL ACETATE] : 2000
C=CCOC(=O)CCCCCC [ALLYL HEPTOATE] : 10000
CC1=CC(C)C(C=O)CC1 (centres unmarked) : 14000
CC/C=C\CCOC(C)=O [CIS-3-HEXENYL ACETATE] : 14000
C=CC(C)(O)CCC=C(C)CC (mixture of isomers) : 10000
CCCC(=O)OCC [ETHYL BUTYRATE, Ethyl butyrate] : 2800
C=CC(C)(O)CCC=C(C)C (centres unmarked) : 18000
CCCCCC1CCC(=O)O1 (centres unmarked) : 2000
CCC(=O)OCc1ccccc1 [BENZYL PROPIONATE] : 6000

These data points were gathered from patent US7517840B2.
